Reference source for all entries: the RNAGym collection of RNA variant scans (doi:10.7554/elife.80360)

B1: CPEB3 Ribozyme (parent)
chain: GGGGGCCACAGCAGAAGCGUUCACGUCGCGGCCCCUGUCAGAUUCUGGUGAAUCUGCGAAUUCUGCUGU

Variants of: B1
protocol description: self-cleavage, relative activity (ratio to wild type); higher = more cleavage; co-transcriptional
Recorded self-cleavage values for a group of variants are listed next.
measure name: self-cleavage

>  <mutant code>
A15U C29G

>  <measure name>
self-cleavage

>  <measurement>
0.169

$$$$
>  <mutant code>
U53G G58U

>  <measure name>
self-cleavage

>  <measurement>
0.939

$$$$
>  <mutant code>
C12G A42U

>  <measure name>
self-cleavage

>  <measurement>
0.61

$$$$
>  <mutant code>
C12A U46G

>  <measure name>
self-cleavage

>  <measurement>
0.628

$$$$
>  <mutant code>
G11C U62A

>  <measure name>
self-cleavage

>  <measurement>
0.409

$$$$
>  <mutant code>
G2A A10C

>  <measure name>
self-cleavage

>  <measurement>
0.259

$$$$
>  <mutant code>
C6A U44G

>  <measure name>
self-cleavage

>  <measurement>
0.416

$$$$
>  <mutant code>
G14U G17A

>  <measure name>
self-cleavage

>  <measurement>
0.145

$$$$
>  <mutant code>
G19U U64C

>  <measure name>
self-cleavage

>  <measurement>
0.249

$$$$
>  <mutant code>
U61C U64C

>  <measure name>
self-cleavage

>  <measurement>
0.31

$$$$
>  <mutant code>
C12U G37A

>  <measure name>
self-cleavage

>  <measurement>
0.302

$$$$
>  <mutant code>
G3C A16C

>  <measure name>
self-cleavage

>  <measurement>
0.0367

$$$$
>  <mutant code>
C32U C45U

>  <measure name>
self-cleavage

>  <measurement>
1.01

$$$$
>  <mutant code>
G1A G14C

>  <measure name>
self-cleavage

>  <measurement>
0.0574

$$$$
>  <mutant code>
G11A C39A

>  <measure name>
self-cleavage

>  <measurement>
0.405

$$$$
>  <mutant code>
A8C G30U

>  <measure name>
self-cleavage

>  <measurement>
0.492

$$$$
>  <mutant code>
G17U G30C

>  <measure name>
self-cleavage

>  <measurement>
0.119

$$$$
>  <mutant code>
C12U G37C

>  <measure name>
self-cleavage

>  <measurement>
0.241

$$$$
>  <mutant code>
G31A U36A

>  <measure name>
self-cleavage

>  <measurement>
0.218

$$$$
>  <mutant code>
U38G G65U

>  <measure name>
self-cleavage

>  <measurement>
0.28

$$$$
>  <mutant code>
A60G G65A

>  <measure name>
self-cleavage

>  <measurement>
0.373

$$$$
>  <mutant code>
U21A U53A

>  <measure name>
self-cleavage

>  <measurement>
0.936

$$$$
>  <mutant code>
U55G G65U

>  <measure name>
self-cleavage

>  <measurement>
0.307

$$$$
>  <mutant code>
A59U G65C

>  <measure name>
self-cleavage

>  <measurement>
0.497

$$$$
>  <mutant code>
A51C C66U

>  <measure name>
self-cleavage

>  <measurement>
0.937

$$$$
>  <mutant code>
A13U C33G

>  <measure name>
self-cleavage

>  <measurement>
0.333

$$$$
>  <mutant code>
C45G G65U

>  <measure name>
self-cleavage

>  <measurement>
0.832

$$$$
>  <mutant code>
C7U C54A

>  <measure name>
self-cleavage

>  <measurement>
0.831

$$$$
>  <mutant code>
C22U G31A

>  <measure name>
self-cleavage

>  <measurement>
0.183

$$$$
>  <mutant code>
G1U G3A

>  <measure name>
self-cleavage

>  <measurement>
0.04

$$$$
>  <mutant code>
C34G U46A

>  <measure name>
self-cleavage

>  <measurement>
0.776

$$$$
>  <mutant code>
G5A A10U

>  <measure name>
self-cleavage

>  <measurement>
0.953

$$$$
>  <mutant code>
U53C G56C

>  <measure name>
self-cleavage

>  <measurement>
0.39

$$$$
>  <mutant code>
A23G U46C

>  <measure name>
self-cleavage

>  <measurement>
0.906

$$$$
>  <mutant code>
G19C G28U

>  <measure name>
self-cleavage

>  <measurement>
0.142

$$$$
>  <mutant code>
C57U G58C

>  <measure name>
self-cleavage

>  <measurement>
0.451

$$$$
>  <mutant code>
G5A A8C

>  <measure name>
self-cleavage

>  <measurement>
0.953

$$$$
>  <mutant code>
U46C G68A

>  <measure name>
self-cleavage

>  <measurement>
1

$$$$
>  <mutant code>
C24U C29A

>  <measure name>
self-cleavage

>  <measurement>
0.292

$$$$
>  <mutant code>
A42U A52C

>  <measure name>
self-cleavage

>  <measurement>
0.945

$$$$
>  <mutant code>
U46C G50C

>  <measure name>
self-cleavage

>  <measurement>
1.04

$$$$
>  <mutant code>
C22A U69C

>  <measure name>
self-cleavage

>  <measurement>
0.291

$$$$
>  <mutant code>
A40U G41A

>  <measure name>
self-cleavage

>  <measurement>
0.537

$$$$
>  <mutant code>
G31U G47A

>  <measure name>
self-cleavage

>  <measurement>
0.787

$$$$
>  <mutant code>
G1C A15C

>  <measure name>
self-cleavage

>  <measurement>
0.266

$$$$
>  <mutant code>
A13C U20A

>  <measure name>
self-cleavage

>  <measurement>
0.149

$$$$
>  <mutant code>
A23U C39G

>  <measure name>
self-cleavage

>  <measurement>
1.02

$$$$
>  <mutant code>
A51G U61A

>  <measure name>
self-cleavage

>  <measurement>
0.833

$$$$
>  <mutant code>
G11A G17C

>  <measure name>
self-cleavage

>  <measurement>
0.122

$$$$
>  <mutant code>
G11A U49G

>  <measure name>
self-cleavage

>  <measurement>
0.965

$$$$
>  <mutant code>
U36A U67A

>  <measure name>
self-cleavage

>  <measurement>
0.246

$$$$
>  <mutant code>
G5C G68U

>  <measure name>
self-cleavage

>  <measurement>
0.483

$$$$
>  <mutant code>
C29G C34G

>  <measure name>
self-cleavage

>  <measurement>
0.294

$$$$
>  <mutant code>
U21A U53C

>  <measure name>
self-cleavage

>  <measurement>
0.927

$$$$
>  <mutant code>
G47C U64A

>  <measure name>
self-cleavage

>  <measurement>
0.979

$$$$
>  <mutant code>
G5A U64G

>  <measure name>
self-cleavage

>  <measurement>
0.729

$$$$
>  <mutant code>
G19C U36C

>  <measure name>
self-cleavage

>  <measurement>
0.0775

$$$$
>  <mutant code>
C24U G47A

>  <measure name>
self-cleavage

>  <measurement>
0.869

$$$$
>  <mutant code>
A15G C22U

>  <measure name>
self-cleavage

>  <measurement>
0.287

$$$$
>  <mutant code>
G5A G19A

>  <measure name>
self-cleavage

>  <measurement>
0.12

$$$$
